Assay: Cmax in Zucker rat sub-chronic fa/fa prediabetic model at 50 mg/kg, po qd measured on day 1 post dose
Type: ADME, organism-based
Parameters: dose 50 mg/kg, route oral
Conditions: in vivo
VALUE_KIND: Cmax (µg/mL)
Only the number, expressed in µg/mL, is required.

Exam item: Look up Cmax for this molecule: CN1CC[C@@H](N2C(=O)S/C(=C\c3ccc4c(cnn4Cc4ccc(Cl)cc4C(F)(F)F)c3)C2=O)[C@H](F)C1
Marked response: 8.38

* * *

Assay: Drug uptake in liver of Zucker rat sub-chronic fa/fa prediabetic model at 12.5 mg/kg, po qd for 11 days
Assay type: ADME, organism-based
Conditions: read-out: Drug uptake
VALUE_KIND: concentration at 264 h (ng/g)
Please state the figure in ng/g; there is no need to write the unit.

Exam item: Item under review: CN1CC[C@@H](N2C(=O)S/C(=C\c3ccc4c(cnn4Cc4ccc(Cl)cc4C(F)(F)F)c3)C2=O)[C@H](F)C1 . Reported concentration at 264 h?
Marked response: 12400

* * *

Assay: Oral bioavailability in Sprague-Dawley rat at 10 mg/kg administered via gavage by LC-MS analysis
Assay type: ADME, organism-based
Conditions: in vivo
VALUE_KIND: bioavailability (%)
Please state the figure in %; there is no need to write the unit.

Exam item: Report bioavailability for CN1CC[C@@H](N2C(=O)S/C(=C\c3ccc4c(cnn4Cc4ccc(Cl)cc4C(F)(F)F)c3)C2=O)[C@H](F)C1 please.
Marked response: 84

* * *

Assay: Volume of distribution at steady state in Sprague-Dawley rat at 2 mg/kg, iv by LC-MS analysis
Format: ADME, organism-based
Conditions: in vivo, read-out: Vdss
VALUE_KIND: Vd
Respond with a number, then the unit of measure.

Exam item: What value of measured Vd is listed for CN1CC[C@@H](N2C(=O)S/C(=C\c3ccc4c(cnn4Cc4ccc(Cl)cc4C(F)(F)F)c3)C2=O)[C@H](F)C1 ?
Marked response: 11.2 L/kg

* * *

Experiment: AUC (0 to 24 hrs) in […] model at 50 mg/kg, po qd for 28 days measured on day 28 post last dose
Format: ADME, organism-based
Design: dose 50 mg/kg, time < 24 hr, route oral
Conditions: in vivo
VALUE_KIND: AUC at 24 h
Remember to follow the number with its unit.

Exam item: Can you look up the measured AUC at 24 h of CN1CC[C@@H](N2C(=O)S/C(=C\c3ccc4c(cnn4Cc4ccc(Cl)cc4C(F)(F)F)c3)C2=O)[C@H](F)C1 for me?
Marked response: 31.6 µg·h/mL

* * *

Assay: Cmax in Zucker rat sub-chronic fa/fa prediabetic model at 3 mg/kg, po qd for 26 days measured on day 26 post last dose
Format: ADME, organism-based
Design: dose 3 mg/kg, route oral
Conditions: in vivo
VALUE_KIND: Cmax
Give the value; after it, write the unit.

Exam item: Requested read-out: Cmax. Entry: CN1CC[C@@H](N2C(=O)S/C(=C\c3ccc4c(cnn4Cc4ccc(Cl)cc4C(F)(F)F)c3)C2=O)[C@H](F)C1
Marked response: 1.22 µg/mL

* * *

Assay: Tmax in CD-1 mouse at 20 mg/kg administered via oral gavage by LC-MS analysis
Format: ADME, organism-based
Settings: in vivo
VALUE_KIND: Tmax (h)
Give your result in h as a bare value.

Exam item: Which Tmax is reported for this molecule? CN1CC[C@@H](N2C(=O)S/C(=C\c3ccc4c(cnn4Cc4ccc(Cl)cc4C(F)(F)F)c3)C2=O)[C@H](F)C1
Marked response: 1.5
